Target: Serine/threonine-protein kinase pim-1 (Homo sapiens)
Sequence (P11309 whole entry): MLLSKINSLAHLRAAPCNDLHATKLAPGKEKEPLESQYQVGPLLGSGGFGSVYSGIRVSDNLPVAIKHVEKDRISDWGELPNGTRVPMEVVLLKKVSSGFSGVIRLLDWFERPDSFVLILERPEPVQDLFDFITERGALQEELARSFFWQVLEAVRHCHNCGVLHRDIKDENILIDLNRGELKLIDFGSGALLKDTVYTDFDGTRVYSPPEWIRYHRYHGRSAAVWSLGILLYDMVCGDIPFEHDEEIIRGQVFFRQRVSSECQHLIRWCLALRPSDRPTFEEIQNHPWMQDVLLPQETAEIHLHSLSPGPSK
Experiment: Inhibition of PIM1 by electrophoretic mobility shift assay
measured_endpoint: IC50 (nM)

| smiles_data | experimental_target | unit_label | measured |
| --- | --- | --- | --- |
| COc1ccc2c(c1CN1CCNCC1)O/C(=C\c1n[nH]c3ccccc13)C2=O | Serine/threonine-protein kinase pim-1 (Homo sapiens) | nM | 6 |

----------
Biological target: CYP2C19 (Homo sapiens, UniProt P33261)
Sequence (P33261 whole entry): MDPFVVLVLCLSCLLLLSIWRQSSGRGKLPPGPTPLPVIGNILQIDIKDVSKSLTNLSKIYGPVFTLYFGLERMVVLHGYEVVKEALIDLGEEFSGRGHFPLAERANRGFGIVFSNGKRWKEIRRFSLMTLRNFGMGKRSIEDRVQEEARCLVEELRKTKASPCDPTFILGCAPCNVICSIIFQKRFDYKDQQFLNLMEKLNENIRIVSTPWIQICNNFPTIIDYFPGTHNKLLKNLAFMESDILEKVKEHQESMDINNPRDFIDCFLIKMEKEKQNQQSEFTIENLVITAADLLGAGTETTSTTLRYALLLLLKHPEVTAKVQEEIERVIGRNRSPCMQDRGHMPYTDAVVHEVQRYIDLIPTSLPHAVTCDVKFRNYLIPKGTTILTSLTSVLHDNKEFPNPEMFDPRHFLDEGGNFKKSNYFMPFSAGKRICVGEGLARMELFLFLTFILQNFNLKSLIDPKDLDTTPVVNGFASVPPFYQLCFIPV
Assay: Inhibition of CYP2C19 at 10 uM
Assay type: ADME
measured_endpoint: inhibition at 10 µM

| smiles_data | measured_endpoint | measured |
| --- | --- | --- |
| COc1ccc2c(c1CN1CCNCC1)O/C(=C\c1n[nH]c3ccccc13)C2=O | inhibition at 10 µM | 54% |
